Target: T1, human CD33 extracellular domain (human, UniProt P20138 18-259)
T1 construct: soluble monomeric ECD; also called human CD33 ECD; hCD33
Assay: SPR, Fab captured, 37C;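 note: surface plasmon resonance with Fabs captured on anti-Fab surface, soluble monomeric CD33 as analyte at several concentrations, double-referenced 1:1 model fit, KD as koff/kon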
observedProperty: kon (M⁻¹ s⁻¹)
Please reply with the bare figure in M⁻¹ s⁻¹ and do not write the unit itself.

{"binder": "ADI-11809 Fab (Fab, V domains shown, Fab fragment; also called Ab6) VH: EVQLVESGGGLVQPGGSLRLSCAASGFTFPSYWMSWVRQAPGKGLEWVATIKRDGSEKGYVDSVKGRFTISRDNAKNSLYLQMNSLRAEDTAVYYCARPLNAGELDVWGQGTMVTVSS VL: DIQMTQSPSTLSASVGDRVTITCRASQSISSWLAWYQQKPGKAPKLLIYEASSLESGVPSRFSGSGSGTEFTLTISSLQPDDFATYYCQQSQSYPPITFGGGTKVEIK", "kon, M⁻¹ s⁻¹": "1.02e+06"}
{"binder": "ADI-10164 Fab (Fab, V domains shown, Fab fragment; also called Ab18) VH: QVQLQESGPGLVKPSETLSLTCAVSGYSISSGYYWGWIRQPPGKGLEWIGSIYHSGSTNYNPSLKSRVTISVDTSKNQFSLKLSSVTAADTAVYYCARLPPWFGFSYFDLWGRGTLVTVSS VL: EIVLTQSPATLSLSPGERATLSCRASQSVSSYLAWYQQKPGQAPRLLIYDASNRATGIPARFSGSGSGTDFTLTISSLEPEDFAVYYCQQVDNYPPTFGGGTKVEIK", "kon, M⁻¹ s⁻¹": 319000}

Here's the next entry for you.
Item ADI-10157 Fab (Fab, V domains shown, Fab fragment; also called Ab13) VH: QVQLQESGPGLVKPSETLSLTCTVSGGSISSYYWSWIRQPPGKGLEWIGSIYYSGSTNYNPSLKSRVTISVDTSKNQFSLKLSSVTAADTAVYYCARVGGVYSTIETYGMDVWGQGTTVTVSS VL: EIVMTQSPATLSVSPGERATLSCRASQSVSSNLAWYQQKPGQAPRLLIYGASTRATGIPARFSGSGSGTEFTLTISSLQSEDFAVYYCQQYTVYPPTFGGGTKVEIK : provide kon
2.82e+06
